- Test system: SF-295 CNS
- Experiment: NCI tumour cell line growth inhibition, 48 h
Measured Endpoint: TGI (µM)
// units = µM; emit number, no label

Request: Returns the measured TGI for the input compound. Input: CCOc1cccc(/C=N/NC(=O)C(=O)Nc2cccc(C(F)(F)F)c2)c1O
Response: 7.97

Request: Returns the measured TGI for the input compound. Input: Cc1cc(S(=O)(=O)NC#N)c(S/C(=N\Nc2ccc([N+](=O)[O-])cc2)c2ccc(Cl)cc2)cc1Cl
Response: 65.5

---

- Test system: OVCAR-4 ovarian
- Experiment: NCI tumour cell line growth inhibition, 48 h; in the data active = GI50 below about 0.43 µM; inactive = the rest
Parameter call: string, one of T = active, F = inactive

Request: Test call, this molecule: N.N.N.N.O=C([O-])C(Cl)Cl.O=C([O-])C(Cl)Cl.[Co+3].[O-][Cl+3]([O-])([O-])[O-]
Response: F

Request: Test call, this molecule: CCc1c(CNc2ccc(C(=O)NC(CC(=O)O)C(=O)O)cc2)ccc2nc(N)nc(N)c12 (stereo not given)
Response: F

Request: Test call, this molecule: O=C(O)c1ccc2c(c1)CCCC(c1ccc(Cl)cc1Cl)=C2c1ccc(O[C@H]2CCN(CCCF)C2)cc1
Response: F

Request: Test call, this molecule: CNCCn1c(=O)c2cc(OC)c(OC)cc2c2ccc3cc4c(cc3c21)OCO4
Response: T

Request: Test call, this molecule: Cc1ccc2nc(-c3ccc(N(C)C)c(Br)c3)cn2c1
Response: F

Request: Test call, this molecule: Cc1cc2c(cc1Cl)SC1=NN(C)C(N(C)C)N1S2(=O)=O (stereo not given)
Response: F

Request: Test call, this molecule: COc1ccccc1/C=C/C(=O)c1ccccc1
Response: F

Request: Test call, this molecule: Cc1ccc(-c2csc(NC(=O)CN3CCN(c4cc5c(cc4F)c(=O)c(C(=O)O)cn5C4CC4)CC3)n2)cc1
Response: F

Request: Test call, this molecule: CN1C(=O)N(C)C2C1NN=c1s/c(=C\c3ccc(F)cc3)c(=O)n12 (stereo not given)
Response: F

Request: Test call, this molecule: COc1ccc(Cn2c3c(cc(OS(=O)(=O)C(F)(F)F)c2=O)Cc2ccccc2-3)cc1
Response: F
